Molecular target: p300 (Homo sapiens)
Construct: host or cells: A549 P300 HiBit cells
Sequence (Q09472 whole entry): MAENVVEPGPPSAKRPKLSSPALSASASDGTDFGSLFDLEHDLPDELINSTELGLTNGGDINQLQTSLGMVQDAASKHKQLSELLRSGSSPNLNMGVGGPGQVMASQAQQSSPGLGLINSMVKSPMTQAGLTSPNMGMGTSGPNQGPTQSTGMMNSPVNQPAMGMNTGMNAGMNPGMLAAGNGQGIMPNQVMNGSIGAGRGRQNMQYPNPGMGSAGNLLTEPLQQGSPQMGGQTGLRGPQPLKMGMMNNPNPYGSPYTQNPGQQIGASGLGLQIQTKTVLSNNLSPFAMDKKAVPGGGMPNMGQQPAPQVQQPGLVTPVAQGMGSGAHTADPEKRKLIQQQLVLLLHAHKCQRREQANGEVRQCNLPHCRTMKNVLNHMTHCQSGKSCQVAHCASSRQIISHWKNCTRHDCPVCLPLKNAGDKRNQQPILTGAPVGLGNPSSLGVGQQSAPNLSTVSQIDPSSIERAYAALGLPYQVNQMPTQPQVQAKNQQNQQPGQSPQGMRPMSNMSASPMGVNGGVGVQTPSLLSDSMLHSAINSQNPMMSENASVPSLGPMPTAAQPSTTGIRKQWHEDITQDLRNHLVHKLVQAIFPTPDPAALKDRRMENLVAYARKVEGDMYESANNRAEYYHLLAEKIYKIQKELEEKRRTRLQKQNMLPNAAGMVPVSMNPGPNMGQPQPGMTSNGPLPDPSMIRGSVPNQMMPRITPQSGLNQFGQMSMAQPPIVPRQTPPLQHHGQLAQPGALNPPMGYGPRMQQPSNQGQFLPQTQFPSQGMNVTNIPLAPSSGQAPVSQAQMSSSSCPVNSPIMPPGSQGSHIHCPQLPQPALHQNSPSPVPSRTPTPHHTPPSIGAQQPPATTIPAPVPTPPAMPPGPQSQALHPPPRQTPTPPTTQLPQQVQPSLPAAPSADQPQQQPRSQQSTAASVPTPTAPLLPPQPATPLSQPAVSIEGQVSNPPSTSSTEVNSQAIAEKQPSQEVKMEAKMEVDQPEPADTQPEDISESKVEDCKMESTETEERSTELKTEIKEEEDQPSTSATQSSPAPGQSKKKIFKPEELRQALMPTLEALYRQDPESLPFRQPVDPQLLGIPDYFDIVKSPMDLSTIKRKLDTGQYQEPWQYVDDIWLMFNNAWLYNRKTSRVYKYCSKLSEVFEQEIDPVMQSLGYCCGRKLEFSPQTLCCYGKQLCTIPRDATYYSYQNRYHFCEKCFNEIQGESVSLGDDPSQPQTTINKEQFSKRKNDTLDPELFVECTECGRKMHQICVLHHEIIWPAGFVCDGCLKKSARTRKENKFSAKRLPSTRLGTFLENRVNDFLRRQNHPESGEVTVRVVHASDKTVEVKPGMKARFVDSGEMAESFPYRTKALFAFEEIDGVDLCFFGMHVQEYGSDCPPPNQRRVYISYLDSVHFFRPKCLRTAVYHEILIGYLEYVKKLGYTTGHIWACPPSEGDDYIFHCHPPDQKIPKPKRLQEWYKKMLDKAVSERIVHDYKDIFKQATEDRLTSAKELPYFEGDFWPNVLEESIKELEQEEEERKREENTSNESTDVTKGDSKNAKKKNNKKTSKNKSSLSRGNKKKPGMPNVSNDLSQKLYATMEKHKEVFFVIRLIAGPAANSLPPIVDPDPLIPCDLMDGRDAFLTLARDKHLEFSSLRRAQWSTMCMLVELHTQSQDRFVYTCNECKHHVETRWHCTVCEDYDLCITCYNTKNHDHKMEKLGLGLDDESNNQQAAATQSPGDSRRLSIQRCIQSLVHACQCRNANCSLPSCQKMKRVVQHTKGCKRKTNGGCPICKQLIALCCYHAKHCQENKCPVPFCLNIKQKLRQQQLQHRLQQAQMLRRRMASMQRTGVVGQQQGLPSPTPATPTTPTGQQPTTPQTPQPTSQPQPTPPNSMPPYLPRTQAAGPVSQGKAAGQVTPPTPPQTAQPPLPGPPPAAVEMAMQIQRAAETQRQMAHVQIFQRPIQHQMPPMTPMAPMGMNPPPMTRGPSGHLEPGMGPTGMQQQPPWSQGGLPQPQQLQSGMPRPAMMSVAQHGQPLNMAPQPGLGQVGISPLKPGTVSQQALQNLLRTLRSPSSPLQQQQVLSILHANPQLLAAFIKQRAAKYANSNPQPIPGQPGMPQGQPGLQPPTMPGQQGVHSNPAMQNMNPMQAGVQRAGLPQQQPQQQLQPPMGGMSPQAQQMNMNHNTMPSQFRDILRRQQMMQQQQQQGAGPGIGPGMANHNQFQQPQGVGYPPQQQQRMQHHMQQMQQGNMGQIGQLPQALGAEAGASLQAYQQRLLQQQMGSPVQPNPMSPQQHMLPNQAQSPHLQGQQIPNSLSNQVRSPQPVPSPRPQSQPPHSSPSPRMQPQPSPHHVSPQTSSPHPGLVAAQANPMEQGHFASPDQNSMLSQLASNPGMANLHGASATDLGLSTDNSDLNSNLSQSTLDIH
Assay: P300 degradation, HiBit technology in A549 P300 HiBit cells (2 h)
Assay type: cell-based
Settings: A549 P300 HiBit cells, 2 hrs post treatment
Recorded DC50 by entry

In the examples that follow, each entry is paired with its recorded DC50.
1. Cc1cc(-c2cc3cccc(-c4nc(N5CCOCC5)cc5c4cc(C)c(=O)n5C)c3cn2)cnc1C(=O)NCC#Cc1cc2c(C3CCC(=O)NC3=O)cccc2o1 (stereo not drawn) | 1 to 9.9 nM
2. CC(C)c1cc(C2CC(C)(C)Oc3cc(-c4ccc(C(=O)NCC#Cc5ccc6occ(C7CCC(=O)NC7=O)c6c5)nc4)c(F)cc32)cc2c1n(C)c(=O)n2C (stereo not drawn) | 1 to 9.9 nM
3. Cn1c(=O)n(C)c2c(C3CCS(=O)(=O)CC3)nc(-c3cccc4cc(-c5ccc(C(=O)NCC#Cc6ccc7occ(C8CCC(=O)NC8=O)c7c6)nc5)ncc34)cc21 (stereo not drawn) | 1 to 9.9 nM
4. CCN(c1cnc(-c2cnc(C(=O)NCC#Cc3ccc4occ(C5CCC(=O)NC5=O)c4c3)c(C)c2)nc1)c1cc(C2CCOCC2)c2c(c1)n(C)c(=O)n2C (stereo not drawn) | 1 to 9.9 nM
5. CC(C)c1cc(-c2cccc3cc(-c4ccc(C(=O)NCC#Cc5cccc(NC67CC(C6)C(=O)NC7=O)c5)nc4)ncc23)cc2c1n(C)c(=O)n2C | 10 to 99 nM
6. CC(C)c1cc(-c2cccc3cc(-c4ccc(C(=O)NCC#Cc5ccc6c(c5)n(C5CCC(=O)NC5=O)c(=O)n6C)nc4)ncc23)cc2c1n(C)c(=O)n2C (stereo not drawn) | 1 to 9.9 nM
7. Cc1cc(N2CCOc3nc(-c4ccc(C(=O)NCC#Cc5cc6c(C7CCC(=O)NC7=O)cccc6o5)nc4)ncc32)cc2c1n(C)c(=O)n2C (stereo not drawn) | 1 to 9.9 nM
8. Cc1cc(-c2ccc(N(C)c3cc(C4=CCOCC4)c4c(c3)n(C)c(=O)n4C)cn2)cnc1C(=O)NCC#Cc1cccc(NC2CCC(=O)NC2=O)c1 (stereo not drawn) | 1 to 9.9 nM

CC(C)c1cc(-c2cccc3cc(-c4ccc(C(=O)NCC#Cc5ccc6occ(C7CCC(=O)NC7=O)c6n5)nc4)ncc23)cc2c1n(C)c(=O)n2C (stereo not drawn) yielded DC50 of 10 to 99 nM

Form field DC50, entry Cc1nc2c(N3CCCc4nc(-c5ccc(C(=O)NCC#Cc6ccc7occ(C8CCC(=O)NC8=O)c7c6)nc5)ncc43)cc(C3CCOCC3)cc2n(C)c1=O (stereo not drawn) : > 1000 nM

// sample CC(C)c1cc(-c2cccc3cc(-c4ccc(C(=O)NCC#Cc5cc6c(C7CCC(=O)NC7=O)coc6cn5)nc4)ncc23)cc2c1n(C)c(=O)n2C (stereo not drawn) , its DC50 was 1 to 9.9 nM

Looking up CCc1cc2c(cc(C)c(=O)n2C)c(N2CCCc3nc(-c4ccc(C(=O)NCC#Cc5ccc6occ(C7CCC(=O)NC7=O)c6c5)nc4)ncc32)n1 (stereo not drawn) , I found its DC50 recorded as 1 to 9.9 nM

====

Molecular target: p300 (Homo sapiens)
Construct: host or cells: A549 P300 HiBit cells
Assay: P300 degradation, HiBit technology in A549 P300 HiBit cells (2 h)
Format: cell-based
Conditions: A549, A549 P300 HiBit cells, 2 hrs post treatment
Below is a list of entries, each paired with its recorded Dmax value.

Examples from the recorded data:
1) Cc1cc2c(N3CCCc4nc(-c5ccc(C(=O)NCC#Cc6ccc7occ(C8CCC(=O)NC8=O)c7c6)nc5)ncc43)cc(C3CCN(C(=O)C4CCOCC4)CC3)cc2n(C)c1=O (stereo not drawn) [Example B150] | 60 to 79%
2) Cc1ccc(-c2ccc3c(c2)n(C)c(=O)n3C)c2cnc(-c3ccc(C(=O)NCC#Cc4ccc5occ(C6CCC(=O)NC6=O)c5c4)nc3)cc12 (stereo not drawn) [Example A72] | > 80%
3) CCc1cc(-c2cccc3cc(-c4ccc(C(=O)NCC#Cc5ccc6ncn(C7CCC(=O)NC7=O)c6c5)nc4)ncc23)c2cc(C)c(=O)n(C)c2c1 (stereo not drawn) [Example B2] | 60 to 79%
4) CCc1cc(-c2cccc3cc(-c4ccc(C(=O)NCC#Cc5cc(C)c6cnn(C7CCC(=O)NC7=O)c6c5)nc4)ncc23)c2cc(C)c(=O)n(C)c2c1 (stereo not drawn) [Example B6] | 60 to 79%
5) Cn1c(=O)n(C)c2c(N3CCC(C)(O)CC3)nc(-c3cccc4cc(-c5ccc(C(=O)NCC#Cc6cc7c(C8CCC(=O)NC8=O)cccc7o6)nc5)ncc34)cc21 (stereo not drawn) [Example A258] | > 80%

Measured on p300 (Homo sapiens), Cc1cc(-c2ncc3c(n2)CCCN3c2nc(N3CC4CCC(C3)O4)cc3c2cc(C)c(=O)n3C)cnc1C(=O)NCC#Cc1ccc2occ(C3CCC(=O)NC3=O)c2c1 (stereo not drawn) [Example B26] has a documented Dmax of > 80%
